# Test system: HT-1080
# Assay: Cytotoxicity against human HT1080 cells after 72 hrs
# Assay type: functional
# Test parameters: HT-1080, 72 h, read-out: TD50 (the source's name)
Readout type: CC50 (µg/mL)
# output: bare number, implied unit µg/mL

Solved entries (count: 3):
> print(dat)
                     substance.smiles  experimental.target    uom  quantitative.result
1             Cc1nn[se]c1C(=O)N1CCCC1              HT-1080  µg/mL                   19
2            Cc1nn[se]c1C(=O)N1CCCCC1              HT-1080  µg/mL                   31
3  Cc1nn[se]c1C(=O)N[C@@H](C)c1ccccc1              HT-1080  µg/mL                   31

Reported CC50 (HT-1080) for entry Cc1nn[se]c1C(=O)N[C@H](C)c1ccccc1 is 100

* * *

# System: CCRF S-180
# Assay: Antitumor activity against S180 cells inoculated in ICR mouse assessed as inhibition of tumor growth at 10 mg/kg, ip after 9 days
# Type: functional
# Test parameters: CCRF S-180, ip, 216 h, route intraperitoneal
A collection of molecules and their measured inhibition in vivo at 10 mg/kg
Record the result as a number with its unit.

> print(dat)
                    substance.smiles                    readout.type  result
1           Cc1nn[se]c1C(=O)N1CCCCC1  inhibition in vivo at 10 mg/kg     71%
2            Cc1nn[se]c1C(=O)N1CCCC1  inhibition in vivo at 10 mg/kg     85%
3  Cc1nn[se]c1C(=O)N[C@H](C)c1ccccc1  inhibition in vivo at 10 mg/kg     20%

Now look at this one.
inhibition in vivo at 10 mg/kg measured on Cc1nn[se]c1C(=O)N(C(C)C)C(C)C = -32%

* * *

# Test system: Mus musculus
# Assay: Toxicity in ICR mouse assessed as body weight at 10 mg/kg, ip after 9 days
# Assay type: organism-based
# Set-up: dose 10 mg/kg, route intraperitoneal
# Test parameters: in vivo, 216 h
Readout type: Activity (%)
Just the number please, in %, no unit attached.

Example entries begin here.
> print(dat)
                    substance.smiles  uom  quantitative.result
1            Cc1nn[se]c1C(=O)N1CCCC1    %                   23
2  Cc1nn[se]c1C(=O)N[C@H](C)c1ccccc1    %                    3

Entry Cc1nn[se]c1C(=O)N(C(C)C)C(C)C : Activity on Mus musculus = 0

Cc1nn[se]c1C(=O)N1CCOCC1 on Mus musculus gives Activity = 8

Activity on Mus musculus for Cc1nn[se]c1C(=O)N1CCCCC1 is 8

* * *

# Tested on: MG-22A
# Assay: Cytotoxicity against mouse MG22A cells after 72 hrs
# Format: functional
# Test parameters: read-out: TD50 (the source's name)
Here the recorded CC50 is given for each entry.
Report the figure in µg/mL without appending any unit label.

> print(dat)
                     substance.smiles  experimental.target  quantitative.result
1  Cc1nn[se]c1C(=O)N[C@@H](C)c1ccccc1               MG-22A                   32

Recorded result, Cc1nn[se]c1C(=O)N1CCCC1 , CC50: 33

Entry Cc1nn[se]c1C(=O)N(C)C , CC50 reported as 35

Form: compound = Cc1nn[se]c1C(=O)N1CCCCC1 ; CC50 = 27

Data point: Cc1nn[se]c1C(=O)N[C@H](C)c1ccccc1 ; CC50 = 29

So for Cc1nn[se]c1C(=O)N(C(C)C)C(C)C , the logged CC50 turned out to be 31

Short answer for Cc1nn[se]c1C(=O)N1CCOCC1 : CC50 was 34
